- test-protocol: Example 1: phase I crossover food-effect study, single-dose pharmacokinetics of nelfinavir 250 mg tablets (total kilocalories and fat)
- Type: in vivo, human (normal healthy volunteers)
- condition-notes: human, plasma, po, 1250 mg, nelfinavir; 1250 mg single oral dose with low calorie/low fat meal (125 Kcal/20% fat); read-out: t1/2 (terminal half-life), least-squares mean (converted)
- Procedure: A phase I, randomized, open-label crossover study to evaluate the impact of total kilocalories and fat content on single-dose pharmacokinetic parameters of the nelfinavir 250 mg tablet formulation in normal healthy volunteers was performed. […] Plasma concentrations of nelfinavir and its active hydroxy-t-butylamide metabolite (M8) were measured by validated high performance liquid chromatography (HPLC) methods. […] The actual time of each collection was recorded on the source document. […]
parameter-measured: half-life (min)
The figure you give is taken to be in min; do not add the unit.

Query: Assign half-life to the following record: Cc1c(O)cccc1C(=O)N[C@@H](CSc1ccccc1)[C@H](O)CN1C[C@H]2CCCC[C@H]2C[C@H]1C(=O)NC(C)(C)C (relative stereo)
Result: 215
